These entries and their values trace back to patent US9511134B2.

Biological target: DRB1*1101 (Homo sapiens, UniProt P01903+P01911, A100R/A169T/A87E/I96F/K41T/L162R/M171V/P40S/Q125H/Q178H/Q39Y/Q99D/R42S/S66Y/T262R/V115G/W38E)
Sequence (P01903 26-254 limits assumed, other chains not shown): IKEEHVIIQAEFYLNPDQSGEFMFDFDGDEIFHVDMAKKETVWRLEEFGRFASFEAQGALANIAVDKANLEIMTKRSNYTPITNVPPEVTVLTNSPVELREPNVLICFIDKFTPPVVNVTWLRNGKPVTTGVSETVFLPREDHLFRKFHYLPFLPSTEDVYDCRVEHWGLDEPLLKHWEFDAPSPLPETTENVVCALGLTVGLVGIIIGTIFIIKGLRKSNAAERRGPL
Test: biochemical
Assay type: binding
Conditions: read-out: IC50 nM to purified HLA DRB1*1101
Please provide measured IC50 for the entries that follow.
One number for each entry, in nM.

compound: CC[C@H](C)[C@H](NC(=O)CNC(=O)[C@@H](NC(=O)[C@@H](NC(=O)[C@H](CO)NC(=O)[C@H](C)NC(=O)[C@H](C)NC(=O)[C@@H](NC(=O)[C@@H](NC(=O)[C@H](CC(C)C)NC(=O)[C@@H]1CCCN1C(=O)[C@@H](N)CC(=O)O)C(C)C)C(C)C)[C@@H](C)CC)[C@@H](C)CC)C(=O)N[C@@H](CC(C)C)C(=O)N[C@@H](Cc1c[nH]cn1)C(=O)N[C@@H](CC(C)C)C(=O)O [Flu.M2.27]
endpoint_unit: nM
IC50: 1800

Pending compound:
Task item: Dear colleague, please send me the reported IC50 for CC[C@H](C)[C@H](N)C(=O)NCC(=O)N[C@@H](CCCNC(=N)N)C(=O)N[C@@H](Cc1ccccc1)C(=O)N[C@@H](Cc1ccc(O)cc1)C(=O)N[C@H](C(=O)N[C@@H](CCC(N)=O)C(=O)N[C@@H](CCSC)C(=O)N[C@@H](CS)C(=O)N[C@H](C(=O)N[C@@H](CCC(=O)O)C(=O)N[C@@H](CC(C)C)C(=O)N[C@@H](CCCCN)C(=O)N[C@@H](CC(C)C)C(=O)N[C@@H](CO)C(=O)O)[C@@H](C)O)[C@@H](C)CC [Flu.NP.39] when you can.
Reply: 880

----------
Molecular target: DRB1*1302 (Homo sapiens, UniProt P01903+P01911, A100E/A169T/K41T/L162R/M171V/P40S/Q125H/Q178H/Q39Y/Q99D/R42S/S66N/T262R/V115G/W38E/Y61H)
Sequence (P01903 26-254 limits assumed, other chains not shown): as above
Assay: biochemical
Assay type: binding
Details: read-out: IC50 nM to purified HLA DRB1*1302
For each record, write down the corresponding IC50.
Numbers only, in nM.

mol: CC[C@H](C)[C@H](NC(=O)[C@H](CCSC)NC(=O)[C@@H]1CCCN1C(=O)[C@H](CC(N)=O)NC(=O)[C@@H](N)Cc1ccccc1)C(=O)N[C@H](C(=O)N[C@@H](CCC(=O)O)C(=O)N[C@@H](CC(C)C)C(=O)N[C@@H](C)C(=O)N[C@@H](CCC(=O)O)C(=O)N[C@@H](CCCCN)C(=O)N[C@H](C(=O)N[C@@H](CCSC)C(=O)N[C@@H](CCCCN)C(=O)N[C@@H](CCC(=O)O)C(=O)O)[C@@H](C)O)C(C)C
IC50, nM: 1250
//
mol: CC[C@H](C)[C@H](NC(=O)[C@@H](NC(=O)[C@H](CC(C)C)NC(=O)[C@H](CO)NC(=O)[C@H](CCC(N)=O)NC(=O)[C@H](CC(=O)O)NC(=O)[C@@H](NC(=O)[C@H](CC(=O)O)NC(=O)[C@H](CC(=O)O)NC(=O)[C@H](CC(N)=O)NC(=O)[C@H](CCCNC(=N)N)NC(=O)[C@@H](NC(=O)[C@H](CCC(=O)O)NC(=O)CNC(=O)CN)C(C)C)C(C)C)[C@@H](C)CC)C(=O)O
IC50, nM: 2500
//
mol: CSCC[C@H](NC(=O)[C@H](CO)NC(=O)[C@H](CCCCN)NC(=O)[C@H](C)N)C(=O)N[C@@H](CCC(=O)O)C(=O)N[C@@H](Cc1ccc(O)cc1)C(=O)N[C@@H](CC(=O)O)C(=O)N[C@@H](C)C(=O)N[C@H](C(=O)N[C@@H](C)C(=O)N[C@H](C(=O)N[C@H](C(=O)N[C@@H](Cc1c[nH]cn1)C(=O)N[C@@H](CO)C(=O)N[C@@H](Cc1c[nH]c2ccccc12)C(=O)O)[C@@H](C)O)[C@@H](C)O)C(C)C
IC50, nM: 2180

Kindly consider the entry below.
Task item: Complete the entry with IC50 for CC[C@H](C)[C@H](NC(=O)[C@H](CCSC)NC(=O)[C@H](CS)NC(=O)[C@H](CC(=O)O)NC(=O)[C@H](CCC(=O)O)NC(=O)[C@H](CCC(N)=O)NC(=O)[C@H](CO)NC(=O)[C@H](Cc1ccccc1)NC(=O)[C@@H](NC(=O)[C@H](CCSC)NC(=O)[C@H](C)N)C(C)C)C(=O)N[C@@H](CCCCN)C(=O)N[C@@H](C)C(=O)N[C@H](C(=O)N[C@@H](CCCNC(=N)N)C(=O)O)C(C)C
Reply: 9200
